tested on: CCRF-CEM; assay: NCI tumour cell line growth inhibition, 48 h
Calls of active or inactive are those of the source. No stated cut-off is given here; in the data, active = GI50 up to about 1.1 µM and inactive = higher.
Lab note: assign the record to one of true (1) for active, false (0) for inactive

Observe how each entry below is paired with its result.
C(/Cc1ccc2c(c1)OCO2)=N\N=C1NCCN1; false (0)
CC(=O)NC1(C)C(C)C2CC1C(C)C2(C)C (centres undefined); false (0)
CCCCCCCCCC[C@@H](OC(C)=O)[C@@H]1CC[C@@H]([C@@H]2CC[C@@H]([C@@H](O)CC#C/C=C/CCCCCCC[C@@]3(Sc4ccccc4)C[C@H](C)OC3=O)O2)O1; false (0)
COc1ccc(C2SCc3nc4ccccc4n32)cc1 (centres undefined); false (0)
Cc1cc2c(cc1C)[n+]([O-])c(C(=O)C/C(=N/NC(=O)CC#N)C(=O)Nc1ccccc1C(F)(F)F)c(C)[n+]2[O-]; false (0)
Nc1ncnc2c1nnn2C1C=C(CO)C(O)C1O (centres undefined); false (0)
c1ccc2c(c1)ccn1ccc3c4ccccc4nc-3c21; true (1)
COc1c(-c2nc3ccc(N4CCN(C)CC4)cc3[nH]2)cc(OC)c2[nH]c(CO)nc12; false (0)

Here is the next item to consider.
Just curious, what result did Cc1ccc(/N=N/c2c(C)c(C#N)c(=S)n(C3OC(CO)C(O)C(O)C3O)c2C)cc1 (centres undefined) get here?
false (0)
